- Experimental Protocol: chemical genetic growth profiling, strain panel (AID 1159580);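 also: tested at 20 µM; growth read once vehicle control cultures reached saturation at 30 °C; 1 = growth at the plate median or of vehicle wells; lower values mean less growth of the strain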
- Measurement Setup: S. cerevisiae deletion strains, growth OD, locus YNL248C, strain rpa49, hits give low values
In all, about 5,500 compounds went through this assay and about 2,000 (36%) were called active. Another 18% or so got no clear call; they are omitted. The list shows a part of the results.
Quantity Measured: normalized growth
Please reply with the number alone, leaving off any unit.

C[C@]12CCC3c4ccc(O)cc4CCC3C1CCC2=O (some centres not stated) :: 0.956

CCC(=O)OC1[C@@H]2CC3=C4CC(=O)O[C@@H](c5ccoc5)[C@]4(C)CCC3[C@@](C)(C2=O)[C@@H](CC(=O)OC)C1(C)C (some centres not stated) has a reported normalized growth of 0.992

CC(=O)C1CCC2C3CCC4C[C@H](O)CCC4(C)C3C[C@H](O)C12C (some centres not stated) has a reported normalized growth of 0.975

CC(=O)O[C@H]1CC[C@@]2(C)C(C[C@@H](OC(C)=O)[C@]3(C)C2CC[C@@]2(C)[C@H](c4ccoc4)OC(=O)[C@H]4O[C@]423)C1(C)C (some centres not stated) has a reported normalized growth of 1.01

* * *

- Experimental Protocol: chemical genetic growth profiling, strain panel (AID 1159580)
- Measurement Setup: S. cerevisiae deletion strains, growth OD, locus YLL001W, strain dnm1, hits give low values
Out of some 5,500 compounds screened, about 2,000 (36%) were called active. Another 18% or so got no clear call; they are omitted. This is one part of the list.
Quantity Measured: normalized growth
Please reply with the number alone, leaving off any unit.

Example entries begin here.
CC(C)/C(O)=C1/C(=O)O[C@@H](c2ccoc2)[C@]2(C)C(O)[C@@H](O)[C@@]34OC5(C)OC67CC(C)(C(O)[C@]6(O)[C@@H](O)[C@]3(O5)C12)[C@H](CC(=O)O)[C@]74C (stereo partly specified) :: 0.973
C=C[C@@]1(C)CC(=O)[C@@]2(O)[C@](C)(O1)[C@@H](OC(C)=O)[C@@H](O)C1C(C)(C)CC[C@H](O)[C@@]12C (stereo partly specified) :: 1.02
Clc1ccc(CSC(Cn2ccnc2)c2ccc(Cl)cc2Cl)cc1 (stereo unspecified) :: 0.0654
Clc1ccc(COC(Cn2ccnc2)c2ccc(Cl)cc2Cl)c(Cl)c1 (stereo unspecified) :: 0.0638
CC(=O)O[C@H]1C[C@@]2(C)[C@@H](C[C@@H](O)C3[C@]2(C)CC[C@H]2[C@H](C)[C@H](O)CC[C@]32C)/C1=C(/CCC=C(C)C)C(=O)O (stereo partly specified) :: 1.04

CC[C@@H]1OC(=O)C[C@@H](O)[C@H](C)[C@@H](O[C@@H]2O[C@H](C)[C@@H](O)[C@H](N(C)C)[C@H]2O)[C@@H](CCN2C[C@H](C)C[C@H](C)C2)C[C@@H](C)C(=O)/C=C/C(C)=C\[C@@H]1CO[C@@H]1O[C@H](C)[C@@H](O)[C@@H](OC)[C@H]1OC has a reported normalized growth of 1

* * *

- Experimental Protocol: chemical genetic growth profiling, strain panel (AID 1159580)
- Measurement Setup: S. cerevisiae deletion strains, growth OD, locus YER155C, strain BEM2 (second series), hits give low values
The campaign covered roughly 5,500 compounds. About 2,000 (36%) were called active. About 18% were inconclusive and are not listed. Some of the results follow.
The following molecules are listed with their measured normalized growth values.
Please reply with the number alone, leaving off any unit.

Example entries begin here.
CC(=O)OCC(=O)[C@@]1(O)CCC2C3CCC4=CC(=O)C=CC4(C)C3[C@@H](O)C[C@@]21C (some centres not stated) :: 0.978
CC12CCCCC1(Br)[N+](=O)N2[O-] (configuration not stated) :: 0.853
O=C(O)CCCCCCCC(=O)O :: 1.07
COc1cc(C)c2c(=O)cc(-c3ccccc3)oc2c1 :: 0.505
O=NN(CCCl)C(=O)NCCCl :: 0.583

CCCn1c(=O)c2[nH]c(C3CCCC3)nc2n(CCC)c1=O has a reported normalized growth of 0.921

Cc1cc(/C=C/c2ccc3cc(N(C)C)ccc3[n+]2C)c(C)n1-c1ccccc1 has a reported normalized growth of 0.727

* * *

- Experimental Protocol: chemical genetic growth profiling, strain panel (AID 1159580);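 also: tested at 20 µM; growth read once vehicle control cultures reached saturation at 30 °C; 1 = growth at the plate median or of vehicle wells; lower values mean less growth of the strain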
- Measurement Setup: S. cerevisiae deletion strains, growth OD, locus YER167W, strain BCK2, hits give low values
The whole screen tested about 5,500 compounds, of which about 2,000 (36%) were called active. Inconclusive results (about 18%) are left out. The list shows a part of the results.
Quantity Measured: normalized growth
Please reply with the number alone, leaving off any unit.

Example entries begin here.
COC(=O)/C(C)=C\CC12OC(C)(C)C3CC(C=C4C(=O)c5c(OC)c6c(c(CC=C(C)C)c5OC431)OC(C)(CCC=C(C)C)C=C6)C2=O (stereo not drawn) :: 0.993
COC[C@]12CN(C=O)C3[C@@H]4[C@H](OC)C1[C@]3(C1CC3(O)C(OC)C(O)C4(OC(C)=O)C1C3OC(=O)c1ccccc1)[C@@H](OC)C[C@H]2O (stereo partly drawn) :: 1.01
O=C(O)CCC1NCC2CC1CN1CCCCC21 (stereo not drawn) :: 1
C[C@]12CCC3C(CC[C@H]4C[C@@H](O)CC[C@]34C)C1CC[C@@H]2O (stereo partly drawn) :: 0.986
C=C[C@@]1(C)CC(=O)[C@@]2(O)[C@](C)(O1)[C@@H](OC(C)=O)[C@@H](O)C1C(C)(C)CC[C@H](O)[C@@]12C (stereo partly drawn) :: 0.964
COc1ccc2c(c1)OCC(Cc1ccc(OC)c(O)c1)C2=O (stereo not drawn) :: 0.981

C[C@]12CCC3C(CC[C@H]4C[C@H](O)CC[C@]34C)C1CC[C@@H]2O (stereo partly drawn) has a reported normalized growth of 1.02

CC(=O)C1CC[C@H]2C3CC[C@H]4C[C@H](O)CC[C@]4(C)C3CC[C@]12C (stereo partly drawn) has a reported normalized growth of 0.993

* * *

- Experimental Protocol: chemical genetic growth profiling, strain panel (AID 1159580);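 also: tested at 20 µM; growth read once vehicle control cultures reached saturation at 30 °C; 1 = growth at the plate median or of vehicle wells; lower values mean less growth of the strain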
- Measurement Setup: S. cerevisiae deletion strains, growth OD, locus YGL253W, strain hxk2, hits give low values
Screen size: about 5,500 compounds; about 2,000 (36%) were called active. Inconclusive results (about 18%) are left out. The list shows a part of the results.
Quantity Measured: normalized growth
Please reply with the number alone, leaving off any unit.

Example entries begin here.
Cc1cc(CC(=O)O)n(C)c1C(=O)c1ccc(Cl)cc1 :: 1.04
C[C@H]1C[C@@H](O)[C@]2(O)[C@@]13CC(=O)OC[C@@]2(C)[C@](C)(O)C(=O)C3 :: 1.03
CC(C)(S)[C@@H](N)C(=O)O :: 0.993
COC(=O)[C@@H]1OC(=O)C2OC23[C@@]1(C)CCC1[C@]2(C)C(C[C@@H](O)[C@]13C)C(C)(C)[C@H](OC(C)=O)C[C@@H]2OC(C)=O (stereo not given in full) :: 1.01
O=C(O)[C@@H](S)[C@@H](S)C(=O)O :: 0.678

Cc1nnc(NS(=O)(=O)c2ccc(N)cc2)s1 has a reported normalized growth of 1.01

CC(C)c1nc(N(C)S(C)(=O)=O)nc(-c2ccc(F)cc2)c1/C=C/[C@@H](O)C[C@@H](O)CC(=O)O has a reported normalized growth of 1.01

* * *

- Experimental Protocol: chemical genetic growth profiling, strain panel (AID 1159580);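 also: tested at 20 µM; growth read once vehicle control cultures reached saturation at 30 °C; 1 = growth at the plate median or of vehicle wells; lower values mean less growth of the strain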
- Measurement Setup: S. cerevisiae deletion strains, growth OD, locus YOR329C, strain SCD5, hits give low values
Among all 5,500 compounds or so, about 2,000 (36%) were called active. Inconclusive results (about 18%) are left out. The list shows a part of the results.
The following compounds are listed with their measured normalized growth values.
Please reply with the number alone, leaving off any unit.

Cn1nccc1-c1cc(Cl)cc(Cl)c1O :: 0.963
CCOC(=O)c1sc(S(C)=NC(=O)Nc2ccc(Cl)cc2)c2c1CCC=C2 (stereo unspecified) :: 0.976
O=S(=O)(NCc1ccc(C(F)(F)F)cc1)c1cc(Br)c(Br)s1 :: 0.969
O=S(=O)(NCc1cc(Cl)cc(Cl)c1)c1cc(C(F)(F)F)cc(C(F)(F)F)c1 :: 0.995
CC1CCC(C(C)C)C(N(Cc2ccccc2)C(=O)c2ccccc2)C1 (stereo unspecified) :: 0.991

Cc1noc(C)c1S(=O)(=O)Nc1csc(C(F)(F)F)c1-c1ccccc1 has a reported normalized growth of 0.975

N#Cc1ccc(Oc2sccc2[N+](=O)[O-])cc1 has a reported normalized growth of 0.977

Cc1ccc(-c2nc(NS(=O)(=O)c3cccc4nonc34)sc2C)cc1Cl has a reported normalized growth of 0.973

O=C(Oc1ccc2ccccc2c1C1SCCS1)c1ccc([N+](=O)[O-])o1 has a reported normalized growth of 0.957

O=[N+]([O-])c1ccsc1Oc1cccc(C(F)(F)F)c1 has a reported normalized growth of 0.984

COc1ccc(Nc2nc(NC(=O)Nc3ccc(Cl)cc3)n[nH]2)cc1 has a reported normalized growth of 1

From: PubChem BioAssay AID1159580
